assay: Inhibition of Saccharomyces cerevisiae imidazole glycerol-phosphate dehydratase expressed in Escherichia coli
pIC50: −log10 of the molar value.
Respond with 1.0 for pIC50 values of 5 and above, 0.0 for values below.

pIC50 >= 5 for O=C(O)C(OCCC(O)Cn1cncn1)C(=O)O (stereo unspecified) ?
0.0

pIC50 >= 5 for O=P(O)(O)CSCC(O)Cn1cncn1 (stereo unspecified) ?
1.0

pIC50 >= 5 for O=P(O)(O)COCC(O)Cn1cncn1 (stereo unspecified) ?
1.0

pIC50 >= 5 for O=P(O)(O)CCCCC(O)c1nc[nH]n1 (stereo unspecified) ?
0.0

pIC50 >= 5 for O=C(O)C(CC(O)c1nc[nH]n1)C(=O)O (stereo unspecified) ?
0.0

pIC50 >= 5 for O=C(O)C(OCC(O)Cn1cncn1)C(=O)O (stereo unspecified) ?
0.0

pIC50 >= 5 for O=C(O)C(CCC(O)c1nc[nH]n1)C(=O)O (stereo unspecified) ?
1.0

pIC50 >= 5 for O=C(O)C(CCCC(O)c1nc[nH]n1)C(=O)O (stereo unspecified) ?
0.0

pIC50 >= 5 for O=P(O)(O)CCC(O)c1nc[nH]n1 (stereo unspecified) ?
1.0

pIC50 >= 5 for "O=P(O)(O)COCCNc1nc[nH]n1" ?
1.0
